# assayed_target: T1, Extracellular domain (ECD) of the canine IL-4 receptor alpha-V5 epitope-AviTag-His Tag (canine)
# T1 construct: monomeric form isolated by size exclusion; also called canine IL-4RA-V5-Avi-His; canine IL-4RA
# T1 chain: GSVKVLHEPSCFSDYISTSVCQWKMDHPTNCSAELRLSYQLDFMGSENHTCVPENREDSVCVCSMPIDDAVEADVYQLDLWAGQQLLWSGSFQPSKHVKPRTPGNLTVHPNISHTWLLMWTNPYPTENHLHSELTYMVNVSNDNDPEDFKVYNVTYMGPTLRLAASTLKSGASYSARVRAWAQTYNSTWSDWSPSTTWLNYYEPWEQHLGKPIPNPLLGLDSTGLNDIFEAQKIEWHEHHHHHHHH
# measurement_notes: SPR, Fab-SASA captured on BSA;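 note: biacore T200 SPR, Fab-SASA variants from E. coli conditioned medium captured on BSA-coated CM5 chip, canine IL-4RA injected 120 s then 420 s dissociation, 1:1 model fit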
readout_kind: koff (s⁻¹)
The response must be a number in s⁻¹ with no trailing unit.

>  <binder>
TB640_005 Fab-SASA VH-V114Q (Fab, V domains shown, not shown: SASA tag then His-tag) VH: EVQLVESGGDLVKPGGSLRLSCVASGFTFRDYAMTWVRQAPGKGLQWVSLISGSGGKTYYADAVKGRFTISRDNAKNTLYLQMNSLRAEDTAVYYCAVDRLTKTIRPQYYGLWQWGQGTLVTVSS VL: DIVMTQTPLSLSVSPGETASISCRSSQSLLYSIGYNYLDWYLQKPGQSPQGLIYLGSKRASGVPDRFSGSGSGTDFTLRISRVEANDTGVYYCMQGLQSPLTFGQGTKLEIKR

>  <unit_string>
s⁻¹

>  <koff>
0.000674

$$$$

Now turn to the next binder.
Exercise: State its koff for this binder: TB640_005 Fab-SASA VH-V114K (Fab, V domains shown, not shown: SASA tag then His-tag) VH: EVQLVESGGDLVKPGGSLRLSCVASGFTFRDYAMTWVRQAPGKGLQWVSLISGSGGKTYYADAVKGRFTISRDNAKNTLYLQMNSLRAEDTAVYYCAVDRLTKTIRPQYYGLWKWGQGTLVTVSS VL: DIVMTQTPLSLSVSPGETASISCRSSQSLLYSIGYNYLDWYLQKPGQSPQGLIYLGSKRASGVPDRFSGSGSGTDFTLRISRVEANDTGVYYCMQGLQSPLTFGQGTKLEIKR
Solution: 0.000717
